# Tested on: COLO 205 colon
# measurementProtocol: NCI-60 one-dose screen, 48 h (100 = growth as untreated, 0 = no growth, -100 = all killed)
# assayContext: 10 µM unless noted
Compounds without any hit were thinned out: in the full panel of roughly 83,000, 20% have a hit.
Property: growth; scope: individual compounds
Kindly provide the numeric value in % only, without the unit symbol.

Bench note: what growth did COc1ccc2c(c1)C(=O)/C(=C/c1cccc(OCC(=O)Nc3nc(C)c(C)s3)c1)O2 show?
-59.1

Moving on to CC(=O)N1C(=S)NC(=O)C1Cn1c(-c2ccccc2)nc2ccccc21 (stereo not drawn)
108

Continue with O=C(CSc1nnc(-c2ccc(NC(=O)c3cccnc3)cc2)o1)N[C@@H](Cc1ccc(O)cc1)C(=O)O
101

Same thing, different compound: CCN(CC)CCCCCCNc1cc(OC)c(Cl)c2cccnc12
55.1

# repeat for CCOC(=O)c1c2c(n3ccc(NC(=O)OC(C)(C)C)cc13)C(=O)c1ncccc1C2=O
-54.6

Query COc1ccc(-c2csc(C3=C(O)CN(C(C)C)C3=N)n2)cc1OC next
128

What about Cn1c2c(c3ccc(Cl)c(Cl)c31)C(C#N)C1(CCNCC1)NC2=O (stereo not drawn) ?
-76.6

Okay, and COc1ccccc1N1C(=O)/C(=C/C2=Cc3ccccc3OC2)SC1=S ?
109

Would you kindly repeat that for O=[N+]([O-])c1ccc(Sc2cccc[n+]2[O-])c2nonc12 ?
-67.3

For COc1ccc(CN2C(=O)C(Cl)=C(Nc3cccc(C(F)(F)F)c3)C2=O)cc1 then?
36.5

And for NS(=O)(=O)c1cnccc1Oc1cccc2cccnc12 ?
103

* * *

In this section, each of the compounds is paired with its reported growth.
# Test system: A549/ATCC NSCLC
# measurementProtocol: NCI-60 one-dose screen, 48 h (100 = growth as untreated, 0 = no growth, -100 = all killed)
# assayContext: 10 µM unless noted
Compounds without any hit were thinned out: in the full panel of roughly 83,000, 20% have a hit.
Kindly provide the numeric value in % only, without the unit symbol.

compound: CCCCOc1nc2ccccc2cc1C1CNC(=O)c2ccccc2N1 (centres undefined)
measureUnit: %
assayResult: 19.9
//
compound: N#CC1=C(/N=C/c2ccccc2)Oc2c(ccc3ccccc23)C1c1ccccc1 (centres undefined)
measureUnit: %
assayResult: 21
//
compound: C=C(C)[C@@H]1CC[C@]2(C(=O)NC3CCCCC3)CC[C@]3(C)[C@H](CC[C@@H]4[C@@]5(C)CCCNC(C)(C)[C@@H]5CC[C@]43C)[C@@H]12
measureUnit: %
assayResult: 41.2
//
compound: Cc1ccccc1NC(=O)N/C(N)=N/c1nc(C)c(C)s1
measureUnit: %
assayResult: 40.2
//
compound: COc1ccc(C2=NN(C(=O)c3cc(OC)c(OC)c(OC)c3)C(c3ccc(Cl)cc3)C2)cc1OC (centres undefined)
measureUnit: %
assayResult: 29.4
//
compound: CCN1C(=O)N(CC)C2C1NN=c1s/c(=C\c3cccs3)c(=O)n12 (centres undefined)
measureUnit: %
assayResult: 25.3
//
compound: COc1ccc2c(c1)CCCN2c1c2ccccc2nc2ccccc12
measureUnit: %
assayResult: 18.5
//
compound: COc1cc(C2CC(c3cc(OC)c(OCCCOc4ccc(-n5c(/C=C/c6ccccc6)nc6ccccc6c5=O)cc4)c(OC)c3)=NO2)cc(OC)c1OC (centres undefined)
measureUnit: %
assayResult: 99.7
//
compound: Cc1c2c(c(C)c3c1oc1cc(O)ccc13)C(=O)N(CCN1CCCCC1)C2=O
measureUnit: %
assayResult: 81.2
//
compound: COc1cccc(-c2nc3sccn3c2/C=C/C(=O)c2ccc(C(F)(F)F)cc2)c1
measureUnit: %
assayResult: 85.1

Report growth for COc1ccc(-c2csc(C3=C(O)CN(C(C)C)C3=N)n2)cc1OC please.
88.7
